- System: mice
- protocolNotes: Systemic toxicity of trans and cis isomers of cyclolignans in mice
- conditionsUsed: Day 4; 28 mg/kg/d intraperitoneally daily; nude mice
quantityMeasured: No. of surviving mice/No. of treated mice

COc1cc([C@@H]2c3cc4c(cc3C[C@H]3COC(=O)[C@H]32)OCO4)cc(OC)c1OC	6/6
COc1cc([C@@H]2c3cc4c(cc3C[C@H]3COC(=O)[C@@H]32)OCO4)cc(OC)c1OC [Deoxypodophyllotoxin, reference compound]	0/6
COc1cc([C@@H]2c3cc4c(cc3[C@H](O)[C@H]3COC(=O)[C@H]23)OCO4)cc(OC)c1OC [Podophyllotoxin, reference compound]	0/6

Please look at the following molecule next.
INPUT: Recall and state the measured No. of surviving mice/No. of treated mice for "COc1cc([C@@H]2c3cc4c(cc3[C@H](O)[C@H]3COC(=O)[C@@H]23)OCO4)cc(OC)c1OC" .
OUTPUT: 6/6
